Assay: ATG_CMV_CIS: Attagene CIS-FACTORIAL HepG2 Assay for human CMV (Internal Marker) (AID 2282928);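 note: endpoint acts as a background internal control marker rather than a target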
Conditions: HepG2 CMV promoter reporter, transcription factor profiling; actives raise or lower the signal
Procedure: ATG_CIS is a cell-based, multiplexed-readout assay that uses HepG2, a human liver cell line, with measurements taken at 24 hours after chemical dosing in a 24-well plate.ATG_CMV_CIS is one of 52 assay component(s) measured or calculated from the ATG_CIS assay. […] This assay endpoint, ATG_CMV_CIS, was analyzed with bidirectional fitting relative to DMSO as the negative control and baseline of activity. […]
The source made the active and inactive calls. Rule for the calls: active = hit-call score of the fitted dose curve at least 0.9, where 1 is the maximum; inactive = score below 0.9.
Write down one outcome, taken from active, inactive

> print(dat)
                                 compound  qualitativelabel
1             CCCCCCCCCCCCCCCC[N+](C)(C)C            active
2                Nc1ccc([N+](=O)[O-])cc1N          inactive
3                     CCC(=O)c1ccc(Cl)cc1          inactive
4  CCOC(=O)NC(=S)Nc1ccccc1NC(=S)NC(=O)OCC          inactive
5                       Nc1ccc(Cl)c(Cl)c1          inactive

IN: Entry CC1CCC(=O)O1 (stereo not given) : call = ?
OUT: inactive

IN: Note, next up: "CCc1cccc(C)c1N(C(=O)CCl)[C@@H](C)COC"
OUT: inactive

IN: How about this compound: "CC(C)CCCCCCCOC(=O)c1ccccc1C(=O)OCCCCCCCC(C)C"
OUT: inactive

Measured values drawn from PubChem BioAssay (EPA / NIEHS) for this set.
